Below, each entry is listed with its recorded relative luminescence intensity.
system: HeLa cells; test: In vitro gene expression in HeLa cells (luciferase mRNA-encapsulating LNP, cumulative luminescence in 24 hr); settings: cumulative intensity in 24 hr relative to cationic lipid of Comparative Example

| COMPOUND | relative luminescence intensity |
| --- | --- |
| CCCCCCCC/C=C\CCCCCCCC(=O)Oc1ccc(CC(=O)OCCC2CCN(CCSSCCN3CCC(CCOC(=O)Cc4ccc(OC(=O)CCCC(=O)OC[C@H](COC(=O)CCCCCC)OC(=O)CCCCCC)cc4)CC3)CC2)cc1 | 8.44 |
| CCCCCCCC/C=C\CCCCCCCC(=O)Oc1ccc(CC(=O)OCCC2CCN(CCSSCCN3CCC(CCOC(=O)Cc4ccc(OC(=O)CCCCCCC/C=C\CCCCCCCC)cc4)CC3)CC2)cc1 [Comparative Example, reference compound] | 1.00 |
| CCCCCCCC/C=C\CCCCCCCC(=O)Oc1ccc(CC(=O)OCCC2CCN(CCSSCCN3CCC(CCOC(=O)Cc4ccc(OC(=O)CCCCCCC/C=C\C[C@H](CCCCCC)OC(C)=O)cc4)CC3)CC2)cc1 | 1.42 |
| CCCCCCCC/C=C\CCCCCCCC(=O)Oc1ccc(CC(=O)OCCC2CCN(CCSSCCN3CCC(CCOC(=O)Cc4ccc(OC(=O)CCCC(=O)OC[C@H](COC(=O)CCCCCCC)OC(=O)CCCCCCC)cc4)CC3)CC2)cc1 | 2.25 |
| CCCCCCCC/C=C\CCCCCCCC(=O)Oc1ccc(CC(=O)OCCC2CCN(CCSSCCN3CCC(CCOC(=O)Cc4ccc(OC(=O)CCCC(=O)OC[C@H](COC(=O)CCCCC)OC(=O)CCCCC)cc4)CC3)CC2)cc1 | 6.72 |
| CCCCCC[C@@H](C/C=C\CCCCCCCC(=O)Oc1ccc(CC(=O)OCCC2CCN(CCSSCCN3CCC(CCOC(=O)Cc4ccc(OC(=O)CCCC(=O)OC[C@H](COC(C)=O)OC(C)=O)cc4)CC3)CC2)cc1)OC(=O)CCCCC | 2.81 |

Values compiled from patent EP4692059A1.
